Task for the reader: assign each of the following compounds its reported selective drug sensitivity score.
Test system: MN-60
Assay: selective drug sensitivity score (sDSS, relative to normal bone marrow) (sDSS (score)); higher = more potent and effective on the cell line relative to normal bone marrow cells;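 note: ALL cell lines in 384-well plates, five doses spanning 10,000-fold, each plate scaled between vehicle and 100 µmol/L benzalkonium chloride controls, sDSS an adapted area-under-curve metric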
Settings: 72 h

Reported selective drug sensitivity score, compound Cc1cn(-c2cc(NC(=O)c3ccc(C)c(Nc4nccc(-c5cnccn5)n4)c3)cc(C(F)(F)F)c2)cn1 [Radotinib] (top concentration 10000 nM) : ____ 0.4

Try this compound next: CCc1nc(C(N)=O)c(Nc2ccc(N3CCC(N4CCN(C)CC4)CC3)c(OC)c2)nc1NC1CCOCC1 [Gilteritinib] (top concentration 1000 nM) -2.52

Cc1nc(-c2cn3c(n2)-c2ccc(-c4cnn(C(C)(C)C(N)=O)c4)cc2OCC3)n(C(C)C)n1 [Taselisib] (top concentration 1000 nM) , same question. -0.4

// query: COCCNCc1ccc(-c2cc3nccc(Oc4ccc(NC(=S)NC(=O)Cc5ccc(F)cc5)cc4F)c3s2)nc1 [Glesatinib] (top concentration 2500 nM) -1.96

And the next one, C=C(c1ccc(C(=O)O)cc1)c1cc2c(cc1C)C(C)(C)CCC2(C)C [Bexarotene] (top concentration 10000 nM) ? -5.3

Note, next up: O=C(Nc1cccnc1)N1CCC(Cc2cccc(Oc3ccc(C(F)(F)F)cn3)c2)CC1 [PF-3845] (top concentration 10000 nM) 3.06

Cool, now O=C(Nc1cc(Oc2cc(F)c(NC(=O)C3(C(=O)Nc4ccc(F)cc4)CC3)cc2F)ccn1)C1CC1 [Altiratinib] (top concentration 10000 nM) -4.86

What would you report for O=C1c2c(O)ccc(O)c2C(=O)c2c(NCCNCCO)ccc(NCCNCCO)c21 [Mitoxantrone] (top concentration 1000 nM) ? -3.86

Proceed to C=CCN(/C=C1/C(=O)O[C@H](COC)[C@@]2(C)C1=C(O)C(=O)C1=C2[C@H](OC(C)=O)C[C@]2(C)C(=O)CC[C@@H]12)CC=C [Sonolisib] (top concentration 10000 nM) -0.76

Now give it for CC(C)C[C@H](NC(=O)CNC(=O)c1cc(Cl)ccc1Cl)B(O)O [Ixazomib] (top concentration 1000 nM) too. -1.84

Same question for CC1(C)CC[C@]2(NC(=O)C(C)(F)F)CC[C@]3(C)[C@H](C(=O)C=C4[C@@]5(C)C=C(C#N)C(=O)C(C)(C)[C@@H]5CC[C@]43C)[C@@H]2C1 [Omaveloxolone] (top concentration 10000 nM) please. 1.08

One more compound: C[C@]12CC[C@H](O)CC1=CC[C@@H]1[C@@H]2CC[C@]2(C)C(c3cccnc3)=CC[C@@H]12 [Abiraterone] (top concentration 5000 nM) -0.12

---

Kindly state selective drug sensitivity score for each of the entries shown.
Tested on: KOPN-8
Test: selective drug sensitivity score (sDSS, relative to normal bone marrow) (sDSS (score)); higher = more potent and effective on the cell line relative to normal bone marrow cells
Conditions: 72 h
Number, no unit, nothing else.

# selective drug sensitivity score lookup, item COc1ccc(Cn2ccc3ccc(C(=O)NO)cc32)cc1 (top concentration 10000 nM) 8.74

Same read-out for CCc1nc(C(N)=O)c(Nc2ccc(N3CCC(N4CCN(C)CC4)CC3)c(OC)c2)nc1NC1CCOCC1 [Gilteritinib] (top concentration 1000 nM) ? 3.08

Can you handle COc1cc(Br)c(Nc2nc(-c3c(C)nc4ncccn34)cs2)c(Br)c1 [PTC-209] (top concentration 10000 nM) next? 4.82

Now this one: Cc1cccc(-c2nn3c(c2-c2ccnc4ccc(C(N)=O)cc24)CCC3)n1 [Galunisertib] (top concentration 1000 nM) 0

How about C=C(c1ccc(C(=O)O)cc1)c1cc2c(cc1C)C(C)(C)CCC2(C)C [Bexarotene] (top concentration 10000 nM) ? 8

Same lookup for O=C(c1cc(Cc2n[nH]c(=O)c3ccccc23)ccc1F)N1CCN(C(=O)C2CC2)CC1 [Olaparib] (top concentration 10000 nM) , please. 9.68

Same for O=C(O)CNC(=O)c1c(O)c2ccccc2n(Cc2ccccc2)c1=O [IOX-2] (top concentration 50000 nM) 2.48
